Species on record: Rattus norvegicus
Test: DrugMatrix - Regimen: Daily Repeat
Format: toxicity, organism-based, Sprague-Dawley
Set-up: regimen Daily Repeat, gender Male, age 6-8 weeks
Conditions: in vivo, ip, 40 mg/kg, 120 h, tissue Blood, route intraperitoneal, dose level High, time 5 day, vehicle 100 % SALINE
PARAMETER: ABSOLUTE BASOPHIL (cells/µL)
Quick reminder: number only, in cells/µL, skip the unit.

Looking up GENTAMICIN , I see its ABSOLUTE BASOPHIL listed as 80

###

Species on record: Rattus norvegicus
Test: DrugMatrix - Regimen: Daily Repeat
Format: toxicity, organism-based, Sprague-Dawley
Parameters: regimen Daily Repeat, gender Male, age 6-8 weeks
Details: in vivo, po, 50 mg/kg, 120 h, tissue Plasma, route oral GAVAGE, dose level Low, time 5 day, vehicle .5 % CMC
Listing of entries alongside the reported SODIUM.
Quick reminder: number only, in MEQ/L, skip the unit.

Observe how each entry below is paired with its result.
Cc1cccc(C)c1OCC(C)N (centres undefined) ... 144.53
CN(C)[C@@H]1C(O)=C(C(N)=O)C(=O)[C@@]2(O)C(O)=C3C(=O)c4c(O)ccc(Cl)c4[C@@](C)(O)[C@H]3C[C@@H]12 ... 144.3
NC1CCN(c2nc3c(cc2F)c(=O)c(C(=O)O)cn3-c2ccc(F)cc2F)C1 (centres undefined) ... 152

Could you now look at the following compound, please?
Looking up CCN1CCC[C@H]1CNC(=O)c1cc(S(N)(=O)=O)ccc1OC [LEVOSULPIRIDE] , I see its SODIUM listed as 150.67

Provenance of the data: ChEMBL document CHEMBL3885881
